Each entry below lists one item and its recorded pIC50 value.
Target: Monoamine Oxidase B (Rattus norvegicus, UniProt P19643)
Construct: serves as the tissue source for mitochondrial monoamine oxidase; from tissue; host or cells: rat whole brain minus cerebellum, P2 mitochondrial pellet
Sequence (P19643 1-520): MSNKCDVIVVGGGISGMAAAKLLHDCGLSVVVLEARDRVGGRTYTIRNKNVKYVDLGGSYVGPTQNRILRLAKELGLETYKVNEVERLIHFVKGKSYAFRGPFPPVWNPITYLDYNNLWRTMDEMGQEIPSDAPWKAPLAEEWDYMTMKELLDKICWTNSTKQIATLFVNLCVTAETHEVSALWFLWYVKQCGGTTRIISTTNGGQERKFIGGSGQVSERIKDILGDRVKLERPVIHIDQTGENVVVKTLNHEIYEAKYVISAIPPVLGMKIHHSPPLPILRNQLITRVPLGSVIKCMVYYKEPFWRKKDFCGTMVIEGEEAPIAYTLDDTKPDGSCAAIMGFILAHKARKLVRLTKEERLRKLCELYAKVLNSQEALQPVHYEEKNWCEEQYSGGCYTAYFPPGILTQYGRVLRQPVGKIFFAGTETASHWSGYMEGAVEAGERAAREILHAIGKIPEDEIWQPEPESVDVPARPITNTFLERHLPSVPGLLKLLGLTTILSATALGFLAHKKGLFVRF
Test: in vitro inhibition of monoamine oxidase assay, monoamine oxidase-B
Assay type: biochemical, Male Wistar rats
Conditions: rat brain mitochondrial monoamine oxidase; substrate [14C]-β-phenethylamine 200 μM; 30 minutes at 37° C.
Counter-ions that a name gives are not always drawn.
Recall that pIC50 is obtained by taking minus log10 of the concentration measured in molar.

| Molecule | Target desc | pIC50 |
| --- | --- | --- |
| COc1ccc(NN=C2CCCC23CCNCC3)cc1 [hydrochloride] | Monoamine Oxidase B (Rattus norvegicus, UniProt P19643) | 5.43 |

Let us move to another entry and its pIC50.
# input I am curious: what pIC50 value has been reported for COc1ccc(CN2CCC3(CCc4c3n(C)c3ccccc43)CC2)cc1 ?
# output 3.90
